Biological target: Cholinesterase (Homo sapiens)
Sequence (P06276 whole entry): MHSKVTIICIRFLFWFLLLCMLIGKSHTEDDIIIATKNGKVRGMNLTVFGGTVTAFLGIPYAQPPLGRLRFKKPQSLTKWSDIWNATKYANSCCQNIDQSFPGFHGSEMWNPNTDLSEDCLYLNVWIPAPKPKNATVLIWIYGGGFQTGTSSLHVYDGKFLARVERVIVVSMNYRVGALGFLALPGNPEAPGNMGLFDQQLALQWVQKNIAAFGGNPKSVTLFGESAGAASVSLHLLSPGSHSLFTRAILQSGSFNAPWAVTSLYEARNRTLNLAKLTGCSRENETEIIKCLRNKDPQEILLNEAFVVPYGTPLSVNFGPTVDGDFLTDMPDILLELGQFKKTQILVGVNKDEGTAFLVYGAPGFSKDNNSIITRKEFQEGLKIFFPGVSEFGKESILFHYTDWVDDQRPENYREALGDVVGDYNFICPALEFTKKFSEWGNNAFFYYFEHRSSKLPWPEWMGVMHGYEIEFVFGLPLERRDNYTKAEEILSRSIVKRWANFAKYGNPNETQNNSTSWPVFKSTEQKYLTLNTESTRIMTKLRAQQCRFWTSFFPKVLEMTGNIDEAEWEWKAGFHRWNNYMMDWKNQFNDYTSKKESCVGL
Friendly reminder: IC50 below 2000 nM is Criterion met, at or above is Criterion not met.

IC50 strictly < 2000 nM for this compound? Cc1ccc(OCc2nc(CN(CC(C)C)C(=O)c3cccc(Cl)c3)cs2)cc1 Criterion met

IC50 strictly < 2000 nM for this compound? CNC(=O)Oc1ccc2c(c1)[C@]1(C)CCN(C)[C@]1(C)N2C Criterion met

IC50 strictly < 2000 nM for this compound? Cc1ccc(OCc2nc(CN(CC(C)C)C(=O)c3c(F)cccc3F)cs2)cc1 Criterion not met

IC50 strictly < 2000 nM for this compound? Cc1ccc(OCc2nc(CN(CC(C)C)C(=O)c3ccccc3Cl)cs2)cc1 Criterion not met

IC50 strictly < 2000 nM for this compound? COc1ccc(OCc2nc(CN(CC(C)C)C(=O)c3ccc4c(c3)OCO4)cs2)cc1 Criterion met

IC50 strictly < 2000 nM for this compound? CN1c2ccccc2C(NCCCCCCC(=O)CCCCNc2c3c(nc4ccccc24)CCCC3)c2ccc(Cl)cc2S1(=O)=O (stereo not given) Criterion met

IC50 strictly < 2000 nM for this compound? CC(C)CN(Cc1csc(COc2ccc(C(F)(F)F)cc2)n1)C(=O)c1ccc2c(c1)OCO2 Criterion not met

IC50 strictly < 2000 nM for this compound? Cc1ccc(OCc2nc(CN(CC(C)C)C(=O)c3ccc4c(c3)OCO4)cs2)cc1 Criterion met

IC50 strictly < 2000 nM for this compound? CC(C)CN(Cc1csc(COc2ccc(Cl)cc2)n1)C(=O)c1ccc2c(c1)OCO2 Criterion met

IC50 strictly < 2000 nM for this compound? Cc1ccc(OCc2nc(CN(CC(C)C)C(=O)c3ccccc3C)cs2)cc1 Criterion not met

###

Target: Cholinesterase (Homo sapiens)
pIC50: −log10 of the molar value.
Each entry gets f if its pIC50 stays under 6, and t if its pIC50 is 6 or above.

Textbook exercise: given the entry Cc1ccc(OCc2nc(CN(CC(C)C)C(=O)c3cccc(F)c3)cs2)cc1 , state whether its pIC50 is greater than or equal to 6. f

Textbook exercise: given the entry CCCCCC(=O)N(Cc1csc(COc2ccc(C)cc2)n1)CC(C)C , state whether its pIC50 is greater than or equal to 6. f

Textbook exercise: given the entry Cc1ccc(S(=O)(=O)C(=O)N(Cc2csc(COc3ccc(F)cc3)n2)CC(C)C)cc1 , state whether its pIC50 is greater than or equal to 6. f

Textbook exercise: given the entry CC(=O)N(Cc1csc(COc2ccc(C)cc2)n1)CC(C)C , state whether its pIC50 is greater than or equal to 6. f

Textbook exercise: given the entry Cc1ccc(OCc2nc(CN(CC(C)C)C(=O)c3ccc(Cl)cc3)cs2)cc1 , state whether its pIC50 is greater than or equal to 6. f

Textbook exercise: given the entry CC(C)CN(Cc1csc(COc2ccc(F)cc2)n1)C(=O)c1ccc2c(c1)OCO2 , state whether its pIC50 is greater than or equal to 6. t

###

For Cholinesterase (Homo sapiens, UniProt P06276), measured IC50 is reported for the entries below.
Respond with the bare value in nM.

Item: CC(C)CN(Cc1csc(COc2ccc(F)cc2)n1)C(=O)S(=O)(=O)c1ccccc1 Test system: Cholinesterase (Homo sapiens, UniProt P06276) Read-out: IC50 Value: ? 8190

Item: Cc1ccc(OCc2nc(CN(CC(C)C)C(=O)c3cccs3)cs2)cc1 Test system: Cholinesterase (Homo sapiens, UniProt P06276) Read-out: IC50 Value: ? 2300

Item: Cc1ccc(OCc2nc(CN(CC(C)C)C(=O)c3ccc(F)cc3)cs2)cc1 Test system: Cholinesterase (Homo sapiens, UniProt P06276) Read-out: IC50 Value: ? 2210

Item: Cc1ccc(OCc2nc(CN(CC(C)C)C(=O)c3ccco3)cs2)cc1 Test system: Cholinesterase (Homo sapiens, UniProt P06276) Read-out: IC50 Value: ? 1670

Item: CCCC(=O)N(Cc1csc(COc2ccc(C)cc2)n1)CC(C)C Test system: Cholinesterase (Homo sapiens, UniProt P06276) Read-out: IC50 Value: ? 4570

Item: Cc1ccc(OCc2nc(CN(CC(C)C)C(=O)c3ccc(C)cc3)cs2)cc1 Test system: Cholinesterase (Homo sapiens, UniProt P06276) Read-out: IC50 Value: ? 1050

Item: CCC(=O)N(Cc1csc(COc2ccc(C)cc2)n1)CC(C)C Test system: Cholinesterase (Homo sapiens, UniProt P06276) Read-out: IC50 Value: ? 8080

###

What inhibition was measured for each of the following?
Target: Acetylcholinesterase (Homo sapiens)
Experiment: Inhibition of AChE (unknown origin) at 10 uM relative to control
Respond with the bare value in %.

Please look up its inhibition: CCCC(=O)N(Cc1csc(COc2ccc(C)cc2)n1)CC(C)C 21.2

Please look up its inhibition: CC(C)CN(Cc1csc(COc2ccc(C(F)(F)F)cc2)n1)C(=O)c1ccc2c(c1)OCO2 1.71

Please look up its inhibition: Cc1ccc(OCc2nc(CN(CC(C)C)C(=O)c3cccc(Cl)c3)cs2)cc1 -3.62

Please look up its inhibition: CCC(=O)N(Cc1csc(COc2ccc(C)cc2)n1)CC(C)C -2.4

Please look up its inhibition: Cc1ccc(OCc2nc(CN(CC(C)C)C(=O)c3ccc(Cl)cc3)cs2)cc1 -6.51

###

Parameter Measured: pIC50
Entry type: numeric. Quantity: pIC50, the -log10 of concentration in molar units.

Item: CN1c2ccccc2C(NCCCCCCC(=O)CCCCNc2c3c(nc4ccccc24)CCCC3)c2ccc(Cl)cc2S1(=O)=O (stereo unspecified) Test system: UniProt P22303 Read-out: pIC50 Value: ? 6.80

###

What inhibition was measured for each of the following?
Target: Acetylcholinesterase (Homo sapiens, UniProt P22303)
Sequence (P22303 whole entry): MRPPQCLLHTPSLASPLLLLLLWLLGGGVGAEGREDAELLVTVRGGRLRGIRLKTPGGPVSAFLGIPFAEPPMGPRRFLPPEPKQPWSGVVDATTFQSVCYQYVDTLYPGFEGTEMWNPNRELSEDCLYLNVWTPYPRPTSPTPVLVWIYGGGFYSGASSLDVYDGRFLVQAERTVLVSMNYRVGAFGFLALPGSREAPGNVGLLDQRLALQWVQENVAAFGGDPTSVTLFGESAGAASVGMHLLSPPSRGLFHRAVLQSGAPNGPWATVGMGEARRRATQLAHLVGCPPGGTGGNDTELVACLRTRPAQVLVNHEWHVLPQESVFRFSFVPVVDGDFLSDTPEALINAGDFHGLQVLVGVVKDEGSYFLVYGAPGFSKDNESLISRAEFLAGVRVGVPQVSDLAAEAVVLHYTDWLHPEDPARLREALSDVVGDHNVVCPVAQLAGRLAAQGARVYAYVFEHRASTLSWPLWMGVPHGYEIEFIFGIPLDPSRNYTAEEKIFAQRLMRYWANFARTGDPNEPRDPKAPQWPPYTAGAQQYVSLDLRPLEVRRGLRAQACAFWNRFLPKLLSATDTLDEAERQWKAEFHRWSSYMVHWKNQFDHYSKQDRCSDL
Assay: Inhibition of AChE (unknown origin) at 10 uM relative to control
Respond with the bare value in %.

Please look up its inhibition: CC(=O)N(Cc1csc(COc2ccc(C)cc2)n1)CC(C)C 19.9

Please look up its inhibition: COCc1nc(CN(CC(C)C)C(=O)c2ccc3c(c2)OCO3)cs1 4.72

Please look up its inhibition: CC(C)CN(Cc1csc(COc2ccc(F)cc2)n1)C(=O)S(=O)(=O)c1ccc2ccccc2c1 20.9

Please look up its inhibition: COc1ccc(C(=O)N(Cc2csc(COc3ccc(C)cc3)n2)CC(C)C)cc1 4.91

###

Molecular target: Acetylcholinesterase (Homo sapiens, UniProt P22303)
Assay: Inhibition of AChE (unknown origin) at 10 uM relative to control
What inhibition was measured for each of the following?
Respond with the bare value in %.

Please look up its inhibition: Cc1ccc(OCc2nc(CN(CC(C)C)C(=O)S(=O)(=O)c3ccc(C)cc3)cs2)cc1 10.1

Please look up its inhibition: CC(C)CN(Cc1csc(COc2ccc(F)cc2)n1)C(=O)c1ccc2c(c1)OCO2 -9.02

Please look up its inhibition: Cc1ccc(OCc2nc(CN(CC(C)C)C(=O)c3ccc4c(c3)OCO4)cs2)cc1 1.76

Please look up its inhibition: Cc1ccc(OCc2nc(CN(CC(C)C)C(=O)c3ccco3)cs2)cc1 1.61

Please look up its inhibition: Cc1ccc(OCc2nc(CN(CC(C)C)C(=O)c3cccc(C)c3)cs2)cc1 -5.65

Please look up its inhibition: Cc1ccc(OCc2nc(CN(CC(C)C)C(=O)S(=O)(=O)c3cccnc3)cs2)cc1 16.5

Please look up its inhibition: CN(Cc1csc(COc2ccc(F)cc2)n1)C(=O)c1ccc2c(c1)OCO2 12.8

Please look up its inhibition: Cc1ccc(OCc2nc(CN(CC(C)C)C(=O)c3cccc(F)c3)cs2)cc1 0.51

Please look up its inhibition: COc1cccc(C(=O)N(Cc2csc(COc3ccc(C)cc3)n2)CC(C)C)c1 1.46

###

For Cholinesterase (Homo sapiens), measured IC50 is reported for the entries below.
Respond with the bare value in nM.

Please look up its IC50: COc1cccc(C(=O)N(Cc2csc(COc3ccc(C)cc3)n2)CC(C)C)c1 970

Please look up its IC50: Cc1ccc(OCc2nc(CN(CC(C)C)C(=O)c3ccccc3)cs2)cc1 1150

Please look up its IC50: Cc1ccc(OCc2nc(CN(CC(C)C)C(=O)c3cccc(C)c3)cs2)cc1 1170

Please look up its IC50: Cc1ccc(OCc2nc(CN(CC(C)C)C(=O)c3ccccc3F)cs2)cc1 1390
